EXPERIMENT SUMMARY: Growth inhibition of human HCT15 cells after 5 days by sulforhodamine B assay
Type: functional
MEASUREMENT PARAMETERS: HCT-15, 120 h
MEASUREMENT TYPE: GI50 (nM)
Respond numerically; units are nM and should not be typed.

Some compounds with recorded GI50:
{"ITEM SMILES": "O=C(/C=C/c1cccn(CCCc2ccccc2Br)c1=O)NO", "UNIT STRING": "nM", "GI50": 1580}
{"ITEM SMILES": "O=C(/C=C/c1cccn(CCc2cccc(Br)c2)c1=O)NO", "UNIT STRING": "nM", "GI50": 7290}
{"ITEM SMILES": "CC(C)(C)c1ccc(CCn2cccc(/C=C/C(=O)NO)c2=O)cc1", "UNIT STRING": "nM", "GI50": 710}
{"ITEM SMILES": "O=C(/C=C/c1cccn(Cc2ccccc2Br)c1=O)NO", "UNIT STRING": "nM", "GI50": 2400}

With those in mind, consider the next compound.
The compound identified as CCOc1cccc(CCn2cccc(/C=C/C(=O)NO)c2=O)c1 registered its GI50 at 920
